Data provenance is PubChem BioAssay AID179.

Quick reference: pIC50 of the listed items.
- System: CEM cells HIV-1 protection, formazan growth assay
- EXPERIMENT DESCRIPTION: NCI AIDS Antiviral Assay
- CONDITION SUMMARY: measured here: growth of uninfected CEM cells
- Protocol: The ability of compounds to protect human CEM cells from HIV-1 infection is measured as a screen for new compounds capable of inhibiting the HIV virus. Five concentrations of drug were tested on uninfected and infected cells and cell growth was measured using a soluble formazan assay. […] Compounds that provided at least 50% protection were retested. Compounds that provided at least 50% protection on retest were listed as moderately active. […]
pIC50: −log10 of the molar value.

Previously resolved entries follow.
Cc1cc2c(cc1C)[n+](=O)c(C(=O)CC(=O)C(=O)Nc1c(C(C)C)cccc1C(C)C)c(C)n2[O-]; < 5.10
COS(=O)CCOC(=O)c1ccccc1SSc1ccccc1C(=O)OCCS(=O)OC (stereo not given); < 3.70
CCN(CC)C(C)C(=O)Nc1cccc(Cl)c1C (stereo not given); < 4.30
COc1nc(NC2OCC(O)C(O)C2O)c(NC2OCC(O)C(O)C2O)c(=O)n1C (stereo not given); < 3.24
CCC(C)C(CC)C(N)=O (stereo not given); < 3.70

Enquiry: I'd like to know its pIC50. The compound in question is FC(F)(F)c1cccc(C=NC23CC4CC(CC(C4)C2)C3)c1
Return: < 4.77

Enquiry: Given the compound CC12Nc3ccccc3C1=C(c1ccccc1)CC1C(=O)OC(=O)C12 (stereo not given) , what is its reported pIC50?
Return: < 4.80

Enquiry: Reported pIC50 for CC(C)[C@](O)(C(=O)OCC1=CCN2CC[C@@H](O)[C@@H]12)[C@H](C)O : what is it?
Return: < 3.38

Enquiry: Quick check: pIC50 of Cc1nnc2nc(-c3ccccc3)nc(-c3ccccc3)n12 ?
Return: < 3.70

Enquiry: For the compound O=c1c2cc(Br)ccc2[nH]c(=S)n1-c1ccccc1 , what pIC50 is on record?
Return: < 4.39

Enquiry: Any idea what pIC50 was measured for CC(=O)OCC1OC(OCCCOP(=S)(OCCC#N)OCC2OC(n3ccc(N)nc3=O)C(OC(=O)c3ccccc3)C2OC(=O)c2ccccc2)C(OC(C)=O)C(OC(C)=O)C1OC(C)=O (stereo not given) ?
Return: < 4.00

* * *

- System: CEM cells HIV-1 protection, formazan growth assay
- EXPERIMENT DESCRIPTION: NCI AIDS Antiviral Assay
- CONDITION SUMMARY: measured here: growth of uninfected CEM cells
Each entry below carries its recorded IC50.

Worked examples, 3 compounds total:
CCOC(=O)c1ccc(NC(=O)Nc2ncccc2C)cc1; > 200 µM
O=c1[nH]c(CCc2ccccc2)nc2ccccc12; > 7.94 µM
C[C@@]1(O)C2/C(=N/O)C3CC1(c1ccccc1)CC(/C3=N/O)C2c1ccccc1 (some centres not stated); > 100 µM

Enquiry: Entry under review: O=C1CC2CCCC(C1)S2=O (configuration not stated) . Reported IC50?
Return: > 1450 µM

Enquiry: Reported IC50, compound COc1ccc(-c2cc(-c3ccccc3)c3ccccc3n2)c(OC)c1OC : ____
Return: > 200 µM

Enquiry: Entry under review: COc1cc2c(cc1OC)C(CSC)Cc1cc(OC)c(OC)cc1N(C)CCC2 (configuration not stated) . Reported IC50?
Return: > 31.6 µM

Enquiry: GET /values?readout=IC50&item= CCCCCCCCCCCCCCCCOP(=O)(O)OP(=O)(O)OCC1OC(n2ccc(N)nc2=O)CC1O (configuration not stated)
Return: > 100 µM

Enquiry: // query IC50 value for entry CCOC(=O)c1nc2ccccc2nc1Oc1ccc(C(=O)OC)cc1
Return: > 200 µM

Enquiry: Requested read-out: IC50. Entry: CC(=O)[CH-]C(C)=O.CC(=O)[CH-]C(C)=O.[CH2-]CCCCCCC.[CH2-]CCCCCCC.[Sn+4]
Return: > 47.9 µM

Enquiry: Which measured IC50 value corresponds to C=CCCCCCCCCCP(=O)(c1ccccc1)c1ccc2c(c1)OCCOCCOCCOCCO2 (configuration not stated) ?
Return: 1.7 µM

Enquiry: Field request: IC50 | item: C=CCc1ccc(O)c(-c2cc(C3Oc4c(-c5cc(CC=C)ccc5O)cc(O)cc4[C@@H]3CO)ccc2O)c1 (some centres not stated)
Return: 91.2 µM

Enquiry: Looking for the measured IC50 of C=CCON(C(=O)OC(C)(C)C)C(C)(C)C , can you help?
Return: > 200 µM

Enquiry: Which IC50 reading was recorded for the compound CC(C)(C)CNC(=O)NCn1cc(-c2ccccc2)nn1 ?
Return: > 200 µM
